// reported Body weight change for each item listed
Tested on: Mus musculus
Assay: Compound was tested for percentage Body weight change in vivo against MCF-7 cells implanted into Nude Mice, Dosage 6.3(mg/kg)
Type: functional, MCF7
Provide only the numeric value, understood in %.

Here is how some molecules turned out for Body weight change.
CCCCCC(=O)OCc1c(F)c(N)c2c(=O)cc(-c3ccc(N)c(F)c3)oc2c1F
-5.9
Cc1c(F)c(N)c2c(=O)cc(-c3ccc(N)c(F)c3)oc2c1F
-8.7
CN(C)CC(=O)OCc1c(F)c(N)c2c(=O)cc(-c3ccc(N)c(F)c3)oc2c1F
-4.8

Now turn to the next molecule.
Could you share which Body weight change value was measured for "Nc1ccc(-c2cc(=O)c3c(N)c(F)c(N)c(F)c3o2)cc1F" ?
-13

----------
Tested on: Mus musculus
Test: Ratio of tumor growth rate of the drug-treated group relative to that of the control group at a dose of 50 mg/kg
Assay type: functional
Listed here: items and their measured T/C min.
Give the quantity in %, number only.

CC(=O)OCc1c(F)c(N)c2c(=O)cc(-c3ccc(N)c(F)c3)oc2c1F
11
CN(C)CC(=O)OCc1c(F)c(N)c2c(=O)cc(-c3ccc(N)c(F)c3)oc2c1F
1
Nc1ccc(-c2cc(=O)c3c(N)c(F)c(CO)c(F)c3o2)cc1F
1.6

Alright, here's another molecule for you.
Item "CCCCCC(=O)NCc1c(F)c(N)c2c(=O)cc(-c3ccc(N)c(F)c3)oc2c1F" has what recorded T/C min?
76

----------
Tested on: HeLa
Assay: In vitro cytotoxicity against HeLa S3 cell lines, treated for 3 days then uptake of neutral red dye was measured
Type: functional, cell-based
Conditions: Homo sapiens, 72 h
reported.metric: pIC50
Keep in mind that pIC50 stands for -log10 of concentration in molar terms.

In the examples that follow, each entry is paired with its recorded pIC50.
CC(=O)OCc1c(F)c(N)c2c(=O)cc(-c3ccc(N)c(F)c3)oc2c1F
5.31
CN(C)CCC(=O)OCc1c(F)c(N)c2c(=O)cc(-c3ccc(N)c(F)c3)oc2c1F
4.96

Data request, read-out pIC50, for "[N-]=[N+]=Nc1c(F)c(N)c2c(=O)cc(-c3ccc(N)c(F)c3)oc2c1F"
5.92

Look at this compound and give its reported pIC50. "CN(C)CCCOCc1c(F)c(N)c2c(=O)cc(-c3ccc(N)c(F)c3)oc2c1F"
4.92

----------
Tested on: HeLa
Experiment: In vitro cytotoxicity against HeLa S3 cell lines, treated for 3 days then uptake of neutral red dye was measured
Assay type: functional, cell-based
Settings: Homo sapiens, 72 h
reported.metric: IC50 (µM)
The figure you give is taken to be in µM; do not add the unit.

Some compounds with recorded IC50:
CCCCCC(=O)OCc1c(F)c(N)c2c(=O)cc(-c3ccc(N)c(F)c3)oc2c1F
34
CN(C)CCCC(=O)OCc1c(F)c(N)c2c(=O)cc(-c3ccc(N)c(F)c3)oc2c1F
4.5
C[N+](C)(C)Cc1c(F)c(N)c2c(=O)cc(-c3ccc(N)c(F)c3)oc2c1F
32
Nc1ccc(-c2cc(=O)c3c(N)c(F)c(N)c(F)c3o2)cc1F
19

Then there is this compound:
Return IC50 measured with HeLa given this compound: "CN(C)CCOCc1c(F)c(N)c2c(=O)cc(-c3ccc(N)c(F)c3)oc2c1F"
4.6
